Test system: LOX IMVI melanoma
experimental details: NCI-60 one-dose screen, 48 h (100 = growth as untreated, 0 = no growth, -100 = all killed)
measurement setup: 10 µM unless noted
The panel holds about 83,000 compounds, 20% with a hit somewhere; the sample as a whole holds those more often.
// reported growth per item
Quick reminder: number only, in %, skip the unit.

Check out these entries, answers already filled in.
{"smiles structure": "O=c1[nH]c(=S)[nH]c(O)c1/C=C1\\C=Nc2ccccc21", "growth, %": 67}
{"smiles structure": "COC(=O)c1cc(=O)nc(N/N=C/c2ccccc2O)s1", "growth, %": 82.3}
{"smiles structure": "CC(C)(C)c1cc(C[P+](c2ccc(Cl)cc2)(c2ccc(Cl)cc2)c2ccc(Cl)cc2)cc(C(C)(C)C)c1O", "growth, %": 92.6}

// recorded growth for Cc1ccc(C(=O)Nc2ccc(CN3CCN(C)CC3)c(C(F)(F)F)c2)cc1C#Cc1cnc(N)c2ccc(C#N)cc12 : 21

// recorded growth for COc1ccc(/C=N/c2cc(C(C)(C)C)nn2-c2ccccc2)cc1 : 99.8

// recorded growth for O=C(Nc1cccc2[nH]c(C(F)(F)F)nc12)c1ccc(F)cc1 : 87.8

---

Tested on: SK-OV-3 ovarian
experimental details: NCI-60 one-dose screen, 48 h (100 = growth as untreated, 0 = no growth, -100 = all killed)
measurement setup: 10 µM unless noted
Compounds without any hit were thinned out: in the full panel of roughly 83,000, 20% have a hit. Active and inactive are the calls of the source. Rule for the calls: active = growth percent below 10; inactive = the rest.
// reported growth per item

{"compound": "COc1ccc(-c2nc(SCC(C)C)nc(Nc3ccc(C)cc3)c2C#N)cc1", "growth": "73.7% (inactive)"}
{"compound": "C[n+]1c2ccccc2c(Nc2ccc(NS(=O)(=O)CCCCN=C(N)N)cc2)c2ccc(N)cc21", "growth": "51% (inactive)"}
{"compound": "COc1ccc2c(c1)cn1c3ccc(O)cc3[nH]c(=O)c21", "growth": "11.3% (inactive)"}
{"compound": "O=C(Nc1ccc(-n2cc(-c3ccncc3)c(-c3ccc(Cl)c(O)c3)n2)cc1)c1cc(Cl)cc(Cl)c1", "growth": "54.9% (inactive)"}
{"compound": "[N-]=[N+]=Nc1ncc(-c2ccc(C(F)(F)F)cc2)c(NC2CCCCCC2)n1", "growth": "71.6% [100 µM] (inactive)"}
{"compound": "COc1ccc(C2=C/C(=C\\c3ccc(Cl)cc3)C(=O)NN2C(=S)NN)cc1", "growth": "89.5% (inactive)"}
{"compound": "COc1ccc(/C=N/c2cc(C(C)(C)C)nn2-c2ccccc2)cc1", "growth": "101% (inactive)"}
{"compound": "N#Cc1ccc(OCc2nc(N)nc(N)c2-c2ccc(Cl)c(Cl)c2)cc1", "growth": "38.5% (inactive)"}

// recorded growth for CC(=O)Oc1cc2ccccc2cc1C(C)C : 104% (inactive)

// recorded growth for CC([C@H]1CC=C2C3CCC4=C[C@@H](N(C)C)CC[C@]4(C)C3CC[C@@]21C)N(C)C (stereo partly specified) : 80.3% (inactive)

---

Tested on: OVCAR-3 ovarian
experimental details: NCI-60 one-dose screen, 48 h
measurement setup: 10 µM unless noted
The panel holds about 83,000 compounds, 20% with a hit somewhere; the sample as a whole holds those more often. The source made the active and inactive calls. How the source made its calls: active means growth percent below 10; inactive means the rest.
Answer with one of the outcomes given here: TRUE (active), FALSE (inactive)

{"compound": "CC(C)OC(=O)[C@H](C)N[P@@](=O)(OC[C@@]1(C)O[C@@H](n2cc(F)c(N)nc2=O)C[C@@H]1O[P@](=O)(N[C@@H](C)C(=O)OC(C)C)Oc1ccccc1)Oc1ccccc1", "classification": "FALSE"}
{"compound": "CC[C@H](Nc1ncnc2nc[nH]c12)c1nc2cccc(NCc3ccc(C(=O)NO)nc3)c2c(=O)n1-c1ccccc1", "classification": "FALSE"}
{"compound": "CCC(C)C1NC(=O)C(CCCCN)NC(=O)C(CCCCN)NC(=O)C(CC(C)C)NC(=O)C(CCCCN)NC(=O)C(C(C)CC)NC(=O)C(C(C)C)NC(=O)C(C(C)CC)NC(=O)C(CCCCN)NC(=O)C(CCCCN)NC(=O)C(C)NC(=O)C(CCCCN)NC(=O)C(CC(C)C)NC1=O (centres undefined)", "classification": "FALSE"}

Fill in: this test's call for Oc1ccc(Br)cc1/C=N/NC(=S)NC12CC3CC(CC(C3)C1)C2 is ___
TRUE
